value kind: CO2 permeability (Barrer)

For orientation, consider the following solved cases.
[[record]]
molecule = "*Oc1ccc(S(=O)(=O)c2ccc(Oc3c(C)cc(C(c4cc(C)c(*)c(C)c4)(C(F)(F)F)C(F)(F)F)cc3C)cc2C(O)(C(F)(F)F)C(F)(F)F)c(C(O)(C(F)(F)F)C(F)(F)F)c1 (repeat unit)"
unit_descriptor = "Barrer"
endpoint_value = 81

[[record]]
molecule = "*Oc1ccc(Oc2cccc(*)c2C#N)c(-c2cccc(C(F)(F)F)c2)c1 (repeat unit)"
unit_descriptor = "Barrer"
endpoint_value = 3.7

[[record]]
molecule = "*Oc1ccc(C(C)(c2ccccc2)c2ccc(Oc3ccc(S(=O)(=O)c4ccc(*)cc4)cc3)cc2)cc1 (repeat unit)"
unit_descriptor = "Barrer"
endpoint_value = 8.12

[[record]]
molecule = "*OC(=O)c1ccc(C(=O)Oc2ccc(C(C)(C)c3ccc(O*)c(C)c3)cc2C)cc1 (repeat unit)"
unit_descriptor = "Barrer"
endpoint_value = 5.8

[[record]]
molecule = "*c1cc(C(=O)OCCC(F)(F)C(F)(F)C(F)(F)C(F)(F)C(F)(F)C(F)(F)F)cc(N2C(=O)c3ccc(C(c4ccc5c(c4)C(=O)N(*)C5=O)(C(F)(F)F)C(F)(F)F)cc3C2=O)c1 (repeat unit)"
unit_descriptor = "Barrer"
endpoint_value = 17.8


[A] *c1ccc(C(c2ccc(N3C(=O)c4ccc(C(c5ccc6c(c5)C(=O)N(*)C6=O)(C(F)(F)F)C(F)(F)F)cc4C3=O)cc2)(C(F)(F)F)C(F)(F)F)cc1 (repeat unit)
[B] *c1ccc(Oc2ccc(C(c3ccc(Oc4ccc(-n5c(=O)c6cc7c(=O)n(*)c(=O)c7cc6c5=O)cc4)cc3)(C(F)(F)F)C(F)(F)F)cc2)cc1 (repeat unit)
[C] *Oc1cccc(C(C)(C)c2ccc(Oc3ccc(S(=O)(=O)c4ccc(*)cc4)cc3)cc2)c1 (repeat unit)
[D] *Oc1c(Br)cc(C2(c3cc(Br)c(OC(=O)c4cccc(C(*)=O)c4)c(Br)c3)OC(=O)c3ccccc32)cc1Br (repeat unit)
[E] *Oc1ccc(S(=O)(=O)c2ccc(Oc3ccc(-c4ccc(*)cc4)cc3)cc2)cc1 (repeat unit)
Place the items in sequence of falling CO2 permeability. Return value: ordered labels per request.
A, B, D, E, C
(A: 63.9 Barrer, B: 14.7 Barrer, D: 8.34 Barrer, E: 5.6 Barrer, C: 1.5 Barrer)
